Cited source for all entries: paper PMC10266688

procedure-details: Single dose pharmacokinetics in CD1 mice (IV, IP, PO), plasma LC-MS/MS
Type: in vivo, mouse
test-context: CD-1, mouse, in vivo, ip, 20 mg/kg, Plasma concentration, Mean

molecule: N#Cc1ccc(/C=C2/C(=O)/C(=C/c3ccc(C#N)cc3)C23CCNCC3)cc1 [Up284]
unit-string: ng/mL
concentration at 120 min: 2140

----------
procedure-details: Single dose pharmacokinetics in CD1 mice (IV, IP, PO), plasma LC-MS/MS
Type: in vivo, mouse
test-context: male, CD-1, mouse, in vivo, po, 50 mg/kg, Plasma concentration, Mean

compound: N#Cc1ccc(/C=C2/C(=O)/C(=C/c3ccc(C#N)cc3)C23CCNCC3)cc1 [Up284]
unit-string: ng/mL
concentration at 120 min: 1220
